molecules and their reported pest or weed control at 1000 g/ha
tested on: Euphorbia heterophylla (EPHHL); test: Post-emergence efficacy, glasshouse; assay type: in vivo; conditions: Euphorbia heterophylla, post-emergence, 312 h; Application Rate 1000 g/Ha; evaluated after 13 days; 100=total damage to plant, 0=no damage to plant; read-out: Control of weed species after post-emergence application, EPHHL
A number alone suffices; assume %.

molecule	unit abbrev	pest or weed control at 1000 g/ha
Cc1c(C(=O)[O-])c2ccccc2n[n+]1C [Compound A61, 2,3-dimethylcinnolin-2-ium-4-carboxylate]	%	70
CC(C)S(=O)(=O)[N-]C(=O)c1c[n+](C)nc2ccccc12	%	60
CC[n+]1cc(C(=O)[N-]S(C)(=O)=O)c2ccccc2n1	%	60
CN(C)S(=O)(=O)[N-]C(=O)c1c[n+](C)nc2ccccc12	%	70
CS(=O)(=O)[N-]C(=O)c1c[n+](CC(=O)NS(C)(=O)=O)nc2ccccc12	%	10

Sample C[n+]1cc(S(=O)(=O)[O-])c2ccccc2n1 [Compound A6, 2-methylcinnolin-2-ium-4-sulfonate] — what was its pest or weed control at 1000 g/ha?
60

Can you share its pest or weed control at 1000 g/ha? I mean this molecule: C[n+]1cc(P(=O)([O-])O)c2ccccc2n1
70

Could you tell me which pest or weed control at 1000 g/ha is on file for COC(=O)CC[n+]1cc(C(=O)[N-]S(C)(=O)=O)c2ccccc2n1 ?
10

---

test system: Digitaria sanguinalis (DIGSA); test: Post-emergence efficacy, glasshouse; type: in vivo; details: Digitaria sanguinalis, post-emergence, 312 h; Application Rate 1000 g/Ha; evaluated after 13 days; 100=total damage to plant, 0=no damage to plant; read-out: Control of weed species after post-emergence application, DIGSA
Rule: pest or weed control at 1000 g/ha below 60% gives condition met, anything at or above gives condition not met.

Hi there! Is pest or weed control at 1000 g/ha for COP(=O)(OC)c1c[n+](CCOS(=O)(=O)[O-])nc2ccccc12 below 60%, do you know?
condition not met

---

Reported values of pest or weed control at 1000 g/ha for individual entries
test system: Lolium perenne (LOLPE); experiment: Post-emergence efficacy, glasshouse; type: in vivo; conditions: Lolium perenne, post-emergence, 312 h; Application Rate 1000 g/Ha; evaluated after 13 days; 100=total damage to plant, 0=no damage to plant; read-out: Control of weed species after post-emergence application, LOLPE
Form entry: enter the amount, then its unit.

Answered examples (2):
smiles notation	system	pest or weed control at 1000 g/ha
C[n+]1cc(C(=O)[N-]S(C)(=O)=O)c2ccccc2n1	Lolium perenne (LOLPE)	50%
CS(=O)(=O)[N-]C(=O)c1c[n+](CC(=O)NS(C)(=O)=O)nc2ccccc12	Lolium perenne (LOLPE)	10%

Query (molecule): CN(C)S(=O)(=O)[N-]C(=O)c1c[n+](C)nc2ccccc12 ; field requested: pest or weed control at 1000 g/ha
20%

Look at this molecule and give its reported pest or weed control at 1000 g/ha. C[n+]1cc(C(=O)[N-]S(=O)(=O)C(C)(C)C)c2ccccc2n1
0%

---

system: Chenopodium album (CHEAL); assay: Post-emergence efficacy, glasshouse; format: in vivo; settings: Chenopodium album, post-emergence, 312 h, Application Rate 500 g/Ha; evaluated after 13 days; 100=total damage to plant, 0=no damage to plant; read-out: Control of weed species after post-emergence application, CHEAL
recorded endpoint: pest or weed control at 500 g/ha (%)
Please state the figure in %; there is no need to write the unit.

Below, 3 compounds whose answers are already recorded.
compound	unit abbrev	pest or weed control at 500 g/ha
CCOP(=O)([O-])c1c[n+](C(C)C)nc2ccccc12 [Compound A77]	%	90
CC(C)OP(=O)([O-])c1c[n+](C(C)(C)C)nc2ccccc12 [Compound A74]	%	60
CCOP(=O)(O)c1c[n+](CCO)nc2ccccc12 [Compound A69]	%	90

Report pest or weed control at 500 g/ha for CCOP(=O)(O)CCc1c[n+](C)nc2ccccc12 [Compound A54, 2,2,2-trifluoroacetate] please.
20

Requested field: pest or weed control at 500 g/ha. Item: CC(C)OP(=O)([O-])c1c[n+](C(C)C)nc2ccccc12 [Compound A76]
90

---

Test system: Lolium perenne (LOLPE)
Assay: Post-emergence efficacy, glasshouse
Format: in vivo
Details: Lolium perenne, post-emergence, 312 h; Application Rate 1000 g/Ha; evaluated after 13 days; 100=total damage to plant, 0=no damage to plant; read-out: Control of weed species after post-emergence application, LOLPE
Procedure: Seeds of a variety of test species were sown in standard soil in pots. […] The test plants were then grown in a glasshouse under controlled conditions (at 24/16° C., day/night; 14 hours light; 65% humidity) and watered twice daily. After 13 days the test was evaluated (100=total damage to plant; 0=no damage to plant). […]
recorded endpoint: pest or weed control at 1000 g/ha (%)
Write it as a number; the unit % goes unstated.

Before answering, review these 6 worked examples.
molecule	pest or weed control at 1000 g/ha / %
C[n+]1cc(P(C)(=O)O)c2ccccc2n1 [Compound A7]	40
CC(C)CP(=O)([O-])c1c[n+](C)nc2ccccc12 [Compound A45]	50
COP(=O)(O)Cc1c[n+](C)nc2ccccc12 [Compound A53]	30
COC(=O)CCS(=O)(=O)[N-]C(=O)c1c[n+](C)nc2ccccc12 [Compound A42]	10
CC[n+]1cc(P(=O)([O-])OC)c2ccccc2n1 [Compound A65]	40
C[n+]1cc(P(=O)([O-])O)c2ccccc2n1 [Compound A78]	10

What does the record list as pest or weed control at 1000 g/ha for C[n+]1cc(C(=O)Nc2nncs2)c2ccccc2n1 [Compound A26] ?
10

State the recorded pest or weed control at 1000 g/ha for this entry: O=C(O)c1c[n+](CCO)nc2ccccc12 [Compound A30]
40

Look up pest or weed control at 1000 g/ha: C[n+]1cc(C(=O)[N-]c2nnn[nH]2)c2ccccc2n1 [Compound A17]
10

Please give the measured pest or weed control at 1000 g/ha for this molecule: CC[n+]1cc(C(=O)[N-]S(C)(=O)=O)c2ccccc2n1 [Compound A22]
60

// lookup pest or weed control at 1000 g/ha for C[C@@H](NC(=O)c1c[n+](C)nc2ccccc12)C(=O)O [Compound A9, 2,2,2-trifluoroacetate]
10

Which pest or weed control at 1000 g/ha is reported for this molecule? C[n+]1cc(C(=O)[N-]S(=O)(=O)CCC(F)(F)F)c2ccccc2n1 [Compound A43]
20

Item under review: O=P(O)(O)CCCc1c[n+](CCCP(=O)(O)O)nc2ccccc12 [Compound A82] . Reported pest or weed control at 1000 g/ha?
10

GET /values?readout=pest or weed control at 1000 g/ha&item= C[n+]1cc(P(C)(=O)O)c2ccccc2n1 [Compound A31]
70

Bench note: what pest or weed control at 1000 g/ha did CC(C)P(=O)([O-])c1c[n+](C)nc2ccccc12 [Compound A46] show?
60

So what's the measured pest or weed control at 1000 g/ha for this one? COP(=O)(OC)c1c[n+](CCOS(=O)(=O)[O-])nc2ccccc12 [Compound A70]
10

For the molecule CCCC[n+]1cc(C(=O)[N-]S(C)(=O)=O)c2ccccc2n1 [Compound A41] , what pest or weed control at 1000 g/ha is on record?
30

Recorded pest or weed control at 1000 g/ha for O=C(O)CC[n+]1cc(C(=O)[N-]S(=O)(=O)C2CC2)c2ccccc2n1 [Compound A20] , please?
0

Given the entry C[n+]1cc(CP(=O)([O-])O)c2ccccc2n1 [Compound A50] , report its measured pest or weed control at 1000 g/ha.
0

# get_value(readout='pest or weed control at 1000 g/ha', item= O=C(O)c1c[n+](CCOS(=O)(=O)[O-])nc2ccccc12 [Compound A28] )
50

pest or weed control at 1000 g/ha lookup needed for C[C@@H](NC(=O)c1c[n+](C)nc2ccccc12)C(=O)OC(C)(C)C [Compound A8] , thanks.
20

// query pest or weed control at 1000 g/ha value for entry CS(=O)(=O)[N-]C(=O)c1c[n+](CCO)nc2ccccc12 [Compound A21]
60

Recorded pest or weed control at 1000 g/ha of CCCP(=O)([O-])c1c[n+](C)nc2ccccc12 [Compound A49] , please.
30

Sample C[n+]1cc(C(=O)[N-]S(=O)(=O)c2ccccc2)c2ccccc2n1 [Compound A35] — what was its pest or weed control at 1000 g/ha?
0

Quick one: pest or weed control at 1000 g/ha for COC(=O)C[n+]1cc(C(=O)[N-]S(C)(=O)=O)c2ccccc2n1 [Compound A15] ?
10

// provenance: patent US20220132847A1
